Measurement target: Cyclin-dependent kinase 5/CDK5 activator 1 (Homo sapiens, UniProt Q00535)
Experiment description: Inhibition of human CDK5/p25
pKi: −log10 of the molar value.
Test readout: pKi

{"columns": ["Smiles repr", "Measurement target", "Result"],
 "data": [
  ["COc1ccc(CNc2ccnc3oc4ccccc4c23)cc1", "Cyclin-dependent kinase 5/CDK5 activator 1 (Homo sapiens, UniProt Q00535)", "< 3.00"]
]}

* * *

Measurement target: UniProtKB P35916
Experiment description: Inhibition of VEGFR3
pKi: −log10 of the molar value.
Test readout: pKi

{"columns": ["Smiles repr", "Measurement target", "Test readout", "Number"],
 "data": [
  ["Clc1ccc(CNc2ccnc3oc4ccccc4c23)cc1", "UniProtKB P35916", "pKi", 6.17],
  ["c1ccc(CNc2ccnc3oc4ccccc4c23)cc1", "UniProtKB P35916", "pKi", 5.96],
  ["c1ccc2c(CNc3ccnc4oc5ccccc5c34)cccc2c1", "UniProtKB P35916", "pKi", 5.96],
  ["c1ccc(CCNc2ccnc3oc4ccccc4c23)cc1", "UniProtKB P35916", "pKi", 5.03]
]}

* * *

Measurement target: CDK6/cyclin D1 (Homo sapiens, UniProt Q00534)
Experiment description: Inhibition of human CDK6/Cyclin D1
Assay type: protein-complex assay

{"columns": ["Smiles repr", "Units of measure", "IC50"],
 "data": [
  ["COc1ccc(CNc2ccnc3oc4ccccc4c23)cc1", "µM", 129]
]}

* * *

Measurement target: Insulin receptor-related protein (Homo sapiens)
Experiment description: Inhibition of human InsRR
pIC50: −log10 of the molar value.
Test readout: pIC50

{"columns": ["Smiles repr", "Measurement target", "Number"],
 "data": [
  ["COc1ccc(CNc2ccnc3oc4ccccc4c23)cc1", "Insulin receptor-related protein (Homo sapiens)", 3.74]
]}

* * *

Measurement target: Insulin receptor (Homo sapiens)
Sequence (P06213 28-758 limits assumed): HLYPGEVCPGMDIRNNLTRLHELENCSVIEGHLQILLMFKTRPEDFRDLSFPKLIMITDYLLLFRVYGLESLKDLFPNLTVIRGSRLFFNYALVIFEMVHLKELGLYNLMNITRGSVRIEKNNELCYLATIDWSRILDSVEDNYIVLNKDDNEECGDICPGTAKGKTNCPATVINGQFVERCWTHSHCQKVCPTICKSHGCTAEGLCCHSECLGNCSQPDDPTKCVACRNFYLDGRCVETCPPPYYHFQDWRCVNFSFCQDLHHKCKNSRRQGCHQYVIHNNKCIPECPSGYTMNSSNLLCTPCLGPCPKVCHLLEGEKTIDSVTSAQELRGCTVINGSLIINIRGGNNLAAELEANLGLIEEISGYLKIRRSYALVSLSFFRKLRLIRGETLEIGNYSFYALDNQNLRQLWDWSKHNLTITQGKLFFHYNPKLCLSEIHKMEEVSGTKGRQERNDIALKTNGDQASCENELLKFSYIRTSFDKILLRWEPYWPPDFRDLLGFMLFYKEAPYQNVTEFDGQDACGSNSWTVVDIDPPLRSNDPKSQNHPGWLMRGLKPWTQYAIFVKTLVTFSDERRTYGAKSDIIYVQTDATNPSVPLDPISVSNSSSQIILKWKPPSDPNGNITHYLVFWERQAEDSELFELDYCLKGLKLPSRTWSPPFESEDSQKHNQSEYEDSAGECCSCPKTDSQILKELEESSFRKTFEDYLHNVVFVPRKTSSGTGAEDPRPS
Sequence (P06213 763-1382 limits assumed): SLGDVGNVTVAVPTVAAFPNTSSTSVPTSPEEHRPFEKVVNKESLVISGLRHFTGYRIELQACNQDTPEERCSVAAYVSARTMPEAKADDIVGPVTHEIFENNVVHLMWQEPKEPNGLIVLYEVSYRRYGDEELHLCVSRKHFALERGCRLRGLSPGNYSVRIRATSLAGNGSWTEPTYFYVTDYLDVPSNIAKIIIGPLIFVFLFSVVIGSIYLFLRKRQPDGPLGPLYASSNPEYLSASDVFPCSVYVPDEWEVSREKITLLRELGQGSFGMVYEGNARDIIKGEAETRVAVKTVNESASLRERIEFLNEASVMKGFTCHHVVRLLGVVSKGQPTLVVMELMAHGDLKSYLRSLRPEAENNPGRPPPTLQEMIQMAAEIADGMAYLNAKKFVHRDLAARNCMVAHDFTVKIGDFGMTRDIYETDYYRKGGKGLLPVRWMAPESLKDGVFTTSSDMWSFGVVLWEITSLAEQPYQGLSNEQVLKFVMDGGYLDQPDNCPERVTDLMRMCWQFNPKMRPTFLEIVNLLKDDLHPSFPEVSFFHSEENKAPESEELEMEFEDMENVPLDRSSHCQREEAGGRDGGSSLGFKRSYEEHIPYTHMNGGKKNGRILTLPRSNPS

{"columns": ["Smiles repr", "Units of measure", "IC50"],
 "data": [
  ["COc1ccc(CNc2ccnc3oc4ccccc4c23)cc1", "µM", 622]
]}

* * *

Measurement target: Dual specificity protein kinase CLK1 (Homo sapiens)
Sequence (P49759 whole entry): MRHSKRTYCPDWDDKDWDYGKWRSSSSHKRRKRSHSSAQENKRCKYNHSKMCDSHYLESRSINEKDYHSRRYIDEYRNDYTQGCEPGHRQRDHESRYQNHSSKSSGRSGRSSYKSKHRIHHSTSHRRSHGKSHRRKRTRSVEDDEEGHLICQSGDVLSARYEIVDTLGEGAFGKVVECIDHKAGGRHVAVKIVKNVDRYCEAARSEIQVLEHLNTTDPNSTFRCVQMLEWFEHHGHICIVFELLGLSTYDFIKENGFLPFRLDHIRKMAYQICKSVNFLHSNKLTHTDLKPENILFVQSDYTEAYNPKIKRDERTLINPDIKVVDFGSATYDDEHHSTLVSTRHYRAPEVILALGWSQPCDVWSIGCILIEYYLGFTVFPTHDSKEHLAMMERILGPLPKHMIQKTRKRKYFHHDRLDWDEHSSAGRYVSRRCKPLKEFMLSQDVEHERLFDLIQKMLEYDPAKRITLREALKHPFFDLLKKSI
pKi: −log10 of the molar value.

{"columns": ["Smiles repr", "pKi"],
 "data": [
  ["COc1ccc(CNc2ccnc3oc4ccccc4c23)cc1", "< 3.00"]
]}

* * *

Measurement target: Aurora kinase A (Homo sapiens, UniProt O14965)
Experiment description: Inhibition of human Aurora A

{"columns": ["Smiles repr", "Ki"],
 "data": [
  ["COc1ccc(CNc2ccnc3oc4ccccc4c23)cc1", "> 1000 µM"]
]}

* * *

Target protein (sequence): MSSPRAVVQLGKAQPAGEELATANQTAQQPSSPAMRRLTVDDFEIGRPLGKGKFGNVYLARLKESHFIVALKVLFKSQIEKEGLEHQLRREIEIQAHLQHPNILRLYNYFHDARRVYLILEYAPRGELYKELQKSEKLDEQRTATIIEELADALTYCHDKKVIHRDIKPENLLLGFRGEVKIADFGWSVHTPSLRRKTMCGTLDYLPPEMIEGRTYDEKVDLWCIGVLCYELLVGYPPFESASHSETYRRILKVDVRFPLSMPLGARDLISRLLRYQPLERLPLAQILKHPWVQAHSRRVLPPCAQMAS
Test readout: Ki

{"columns": ["Smiles repr", "Result"],
 "data": [
  ["COc1ccc(CNc2ccnc3oc4ccccc4c23)cc1", "> 1000 µM"]
]}

* * *

Entries and their measured Ki follow.
Measurement target: Insulin-like growth factor 1 receptor (Homo sapiens, UniProt P08069)
Sequence (P08069 31-736 limits assumed): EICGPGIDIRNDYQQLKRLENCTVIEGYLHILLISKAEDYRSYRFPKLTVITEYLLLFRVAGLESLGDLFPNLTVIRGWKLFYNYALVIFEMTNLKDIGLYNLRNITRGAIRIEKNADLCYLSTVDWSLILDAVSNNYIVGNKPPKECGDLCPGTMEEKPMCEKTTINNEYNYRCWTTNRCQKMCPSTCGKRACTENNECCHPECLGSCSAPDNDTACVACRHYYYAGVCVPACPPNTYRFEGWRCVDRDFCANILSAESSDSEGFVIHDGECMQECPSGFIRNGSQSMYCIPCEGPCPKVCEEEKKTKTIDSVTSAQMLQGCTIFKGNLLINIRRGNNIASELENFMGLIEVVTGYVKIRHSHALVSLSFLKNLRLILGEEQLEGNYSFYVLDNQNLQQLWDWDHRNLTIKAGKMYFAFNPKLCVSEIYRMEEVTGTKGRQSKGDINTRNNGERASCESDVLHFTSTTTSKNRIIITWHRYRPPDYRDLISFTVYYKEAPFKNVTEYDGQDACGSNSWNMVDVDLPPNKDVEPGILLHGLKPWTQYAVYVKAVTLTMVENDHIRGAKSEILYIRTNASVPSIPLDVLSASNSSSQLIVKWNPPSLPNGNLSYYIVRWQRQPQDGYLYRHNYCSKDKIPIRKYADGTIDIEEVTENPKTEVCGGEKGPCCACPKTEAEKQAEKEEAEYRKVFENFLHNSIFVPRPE
Sequence (P08069 741-1367 limits assumed): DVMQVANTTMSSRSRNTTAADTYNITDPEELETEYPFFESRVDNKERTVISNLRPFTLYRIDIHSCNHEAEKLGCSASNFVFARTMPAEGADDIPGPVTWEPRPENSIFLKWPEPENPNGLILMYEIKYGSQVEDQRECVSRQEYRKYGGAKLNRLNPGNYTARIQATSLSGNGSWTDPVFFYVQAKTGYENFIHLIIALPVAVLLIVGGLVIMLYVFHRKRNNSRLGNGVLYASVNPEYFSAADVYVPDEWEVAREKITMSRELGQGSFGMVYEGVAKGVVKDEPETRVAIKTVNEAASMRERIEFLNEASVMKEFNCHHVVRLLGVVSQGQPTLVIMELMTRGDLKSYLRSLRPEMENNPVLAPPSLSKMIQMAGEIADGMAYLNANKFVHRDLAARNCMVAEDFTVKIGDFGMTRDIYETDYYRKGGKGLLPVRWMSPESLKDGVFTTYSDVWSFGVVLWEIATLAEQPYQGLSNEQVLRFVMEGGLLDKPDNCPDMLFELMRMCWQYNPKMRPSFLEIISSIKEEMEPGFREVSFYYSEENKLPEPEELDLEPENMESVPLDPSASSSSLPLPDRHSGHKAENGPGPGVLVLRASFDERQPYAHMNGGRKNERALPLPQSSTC
Test readout: Ki

{"columns": ["Smiles repr", "Measurement target", "Result"],
 "data": [
  ["COc1ccc(CNc2ccnc3oc4ccccc4c23)cc1", "Insulin-like growth factor 1 receptor (Homo sapiens, UniProt P08069)", "150 nM"],
  ["Clc1ccc(CNc2ccnc3oc4ccccc4c23)cc1", "Insulin-like growth factor 1 receptor (Homo sapiens, UniProt P08069)", "110 nM"],
  ["c1ccc(CNc2ccnc3oc4ccccc4c23)cc1", "Insulin-like growth factor 1 receptor (Homo sapiens, UniProt P08069)", "370 nM"]
]}

* * *

Measurement target: Dual specificity tyrosine-phosphorylation-regulated kinase 1A (Homo sapiens)
pKi: −log10 of the molar value.
Test readout: pKi

{"columns": ["Smiles repr", "Result"],
 "data": [
  ["COc1ccc(CNc2ccnc3oc4ccccc4c23)cc1", "< 3.00"]
]}

* * *

Measurement target: Cyclin-dependent kinase 4/cyclin D1 (Homo sapiens)
Sequence (P11802 whole entry): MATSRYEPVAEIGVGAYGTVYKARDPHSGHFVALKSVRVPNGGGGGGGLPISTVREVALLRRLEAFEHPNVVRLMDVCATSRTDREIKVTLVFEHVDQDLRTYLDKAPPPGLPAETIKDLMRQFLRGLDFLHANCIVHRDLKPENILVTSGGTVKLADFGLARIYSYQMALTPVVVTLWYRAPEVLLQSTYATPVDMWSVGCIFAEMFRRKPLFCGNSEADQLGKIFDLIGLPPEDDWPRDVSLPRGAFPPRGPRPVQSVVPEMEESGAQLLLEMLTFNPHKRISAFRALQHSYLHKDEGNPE
Sequence (P24385 whole entry, further chain): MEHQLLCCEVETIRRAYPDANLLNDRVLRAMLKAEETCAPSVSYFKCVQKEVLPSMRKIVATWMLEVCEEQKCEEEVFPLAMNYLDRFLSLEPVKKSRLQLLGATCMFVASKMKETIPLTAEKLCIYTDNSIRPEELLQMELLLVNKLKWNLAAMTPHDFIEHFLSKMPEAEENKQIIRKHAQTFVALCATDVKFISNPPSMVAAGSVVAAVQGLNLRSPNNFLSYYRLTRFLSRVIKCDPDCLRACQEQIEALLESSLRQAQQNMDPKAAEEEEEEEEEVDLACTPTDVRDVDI
Experiment description: Inhibition of human CDK4/Cyclin D1
pIC50: −log10 of the molar value.
Test readout: pIC50

{"columns": ["Smiles repr", "Number"],
 "data": [
  ["COc1ccc(CNc2ccnc3oc4ccccc4c23)cc1", 3.42]
]}

* * *

Measurement target: UniProtKB P41743
Sequence (P41743 whole entry): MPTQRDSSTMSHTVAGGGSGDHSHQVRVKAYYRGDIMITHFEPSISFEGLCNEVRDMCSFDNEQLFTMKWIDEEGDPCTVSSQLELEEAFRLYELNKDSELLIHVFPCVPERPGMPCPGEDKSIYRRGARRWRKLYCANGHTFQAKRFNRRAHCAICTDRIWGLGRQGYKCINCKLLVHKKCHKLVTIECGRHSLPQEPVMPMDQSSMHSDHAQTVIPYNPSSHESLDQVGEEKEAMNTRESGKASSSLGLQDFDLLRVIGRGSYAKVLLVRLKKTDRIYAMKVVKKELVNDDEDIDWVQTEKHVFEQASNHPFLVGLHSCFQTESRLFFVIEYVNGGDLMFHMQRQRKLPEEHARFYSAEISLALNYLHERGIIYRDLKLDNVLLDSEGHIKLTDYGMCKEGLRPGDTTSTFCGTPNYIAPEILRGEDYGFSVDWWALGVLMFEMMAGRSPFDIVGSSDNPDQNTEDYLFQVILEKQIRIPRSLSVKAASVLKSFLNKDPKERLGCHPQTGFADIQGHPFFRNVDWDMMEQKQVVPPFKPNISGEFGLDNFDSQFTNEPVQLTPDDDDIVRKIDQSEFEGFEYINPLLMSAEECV
pKi: −log10 of the molar value.
Test readout: pKi

{"columns": ["Smiles repr", "Test readout", "Result"],
 "data": [
  ["COc1ccc(CNc2ccnc3oc4ccccc4c23)cc1", "pKi", "< 3.00"]
]}

* * *

Measurement target: UniProt:Q05397
Sequence (Q05397 whole entry): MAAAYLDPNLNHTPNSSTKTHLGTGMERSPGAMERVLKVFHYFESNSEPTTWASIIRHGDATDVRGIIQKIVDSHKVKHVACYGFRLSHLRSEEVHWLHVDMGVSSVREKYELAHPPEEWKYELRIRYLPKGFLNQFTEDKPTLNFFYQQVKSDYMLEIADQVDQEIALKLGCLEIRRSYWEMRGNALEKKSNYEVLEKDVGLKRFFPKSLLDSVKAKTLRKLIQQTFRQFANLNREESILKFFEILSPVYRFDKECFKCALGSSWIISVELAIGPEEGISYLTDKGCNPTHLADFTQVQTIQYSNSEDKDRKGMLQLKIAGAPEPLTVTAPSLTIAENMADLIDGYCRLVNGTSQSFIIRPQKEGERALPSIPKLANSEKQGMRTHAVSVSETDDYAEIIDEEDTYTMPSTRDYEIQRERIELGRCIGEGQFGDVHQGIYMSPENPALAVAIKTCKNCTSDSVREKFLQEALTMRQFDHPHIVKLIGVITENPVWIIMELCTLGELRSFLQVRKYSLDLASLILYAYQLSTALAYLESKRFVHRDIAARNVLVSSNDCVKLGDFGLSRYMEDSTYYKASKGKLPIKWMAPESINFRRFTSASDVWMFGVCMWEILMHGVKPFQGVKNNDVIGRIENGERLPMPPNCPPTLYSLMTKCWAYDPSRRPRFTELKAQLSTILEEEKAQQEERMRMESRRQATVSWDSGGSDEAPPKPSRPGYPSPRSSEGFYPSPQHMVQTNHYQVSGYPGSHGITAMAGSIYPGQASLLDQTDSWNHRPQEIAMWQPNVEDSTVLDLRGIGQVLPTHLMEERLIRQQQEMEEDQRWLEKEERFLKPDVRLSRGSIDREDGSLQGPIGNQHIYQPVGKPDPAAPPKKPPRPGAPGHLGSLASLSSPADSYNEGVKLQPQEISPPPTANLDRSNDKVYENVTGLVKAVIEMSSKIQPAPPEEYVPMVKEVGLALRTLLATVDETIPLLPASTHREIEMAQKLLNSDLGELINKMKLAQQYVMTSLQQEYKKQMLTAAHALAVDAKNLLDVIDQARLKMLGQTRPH
Experiment description: Inhibition of human FAK
pIC50: −log10 of the molar value.
Test readout: pIC50

{"columns": ["Smiles repr", "Number"],
 "data": [
  ["COc1ccc(CNc2ccnc3oc4ccccc4c23)cc1", 3.71]
]}

Origin of measurements: ChEMBL document CHEMBL1287713
